Attribution: ChEMBL document CHEMBL1772940

Tested on: Aldehyde reductase AKR1A1 (Rattus norvegicus)
protocolDescription: Inhibition of Wistar rat kidney aldehyde reductase at 50 uM by spectrophotometric analysis
Measured inhibition values are reported for all entries that follow.
Reply with just the number (in %).

| mol | inhibition [%] |
| --- | --- |
| O=C(O)CN1CN(Cc2cc(F)c(F)cc2F)S(=O)(=O)c2cc(Br)cnc21 | 44.2 |
| O=C(O)CN1CN(Cc2ccc(Br)cc2F)S(=O)(=O)c2cc(Br)cnc21 | 44.9 |
| O=C(O)CN1CN(Cc2cc(F)c(F)cc2F)S(=O)(=O)c2cc(Cl)cnc21 | 36.5 |
| O=C(O)CN1CN(Cc2ccc(Br)cc2F)S(=O)(=O)c2cc(Cl)cnc21 | 36.6 |
| COc1ccc(CN2CN(CC(=O)O)c3ncc(Br)cc3S2(=O)=O)cc1 | 27.9 |
| COc1ccc(CN2CN(CC(=O)O)c3ncc(C)cc3S2(=O)=O)cc1 | 17.7 |
| Cc1cnc2c(c1)S(=O)(=O)N(Cc1ccc(C(F)(F)F)cc1)CN2CC(=O)O | 20.5 |
| O=C(O)CN1CN(Cc2cccc([N+](=O)[O-])c2)S(=O)(=O)c2cc(Br)cnc21 | 31.5 |

Documented inhibition of "O=C(O)CN1CN(Cc2cccc([N+](=O)[O-])c2)S(=O)(=O)c2cc(Cl)cnc21" : 40.2

Documented inhibition of "COc1ccc(CN2CN(CC(=O)O)c3ncc(Cl)cc3S2(=O)=O)cc1" : 32.3

Documented inhibition of "Cc1cnc2c(c1)S(=O)(=O)N(Cc1cccc([N+](=O)[O-])c1)CN2CC(=O)O" : 23.2

Documented inhibition of "Cc1cnc2c(c1)S(=O)(=O)N(Cc1ccc(Br)cc1F)CN2CC(=O)O" : 24.6
